// data source = ChEMBL document CHEMBL1152804

Assignment: determine reported logP for the given compounds.
assay: Lipophilicity, log P by microemulsion electrokinetic chromatography
Format: physicochemical
details: read-out: logP
Answers are plain numbers.

compound: CNC(=C[N+](=O)[O-])NCCSCc1ccc(CN(C)C)o1
dataValue: 1.06
//
compound: COC(=O)Nc1nc2ccc(C(=O)c3ccccc3)cc2[nH]1
dataValue: 2.26
//
compound: Clc1cccc(Cl)c1N=C1NCCN1
dataValue: 1.08
//
compound: CC(C)n1c(/C=C/C(O)CC(O)CC(=O)O)c(-c2ccc(F)cc2)c2ccccc21 (stereo not given)
dataValue: 3.92

For each entry beneath this line, provide reported logP.
1. CN(C)CCC=C1c2ccccc2COc2ccccc21 [DOXEPIN]
2. CCOC(=O)c1ncn2c1CN(C)C(=O)c1cc(F)ccc1-2
3. OCCOCCN1CCN(C2=Nc3ccccc3Sc3ccccc32)CC1

Output:
[4.07, 0.92, 3.54]

For each entry beneath this line, provide reported logP.
1. CN1CCCCC1CCN1c2ccccc2Sc2ccc([S+](C)[O-])cc21 (stereo not given)
2. C=CCc1ccccc1OCC(O)CNC(C)C (stereo not given)
3. Fc1ccc([C@@H]2CCNC[C@H]2COc2ccc3c(c2)OCO3)cc1

Output:
[4.26, 3.57, 4.07]

* * *

assay: Lipophilicity, log D at pH 7.4 by liquid chromatography
Format: physicochemical
details: buffer
assayMetric: logD
One number for each entry.

compound: OCCN1CCN(CCCN2c3ccccc3Sc3ccc(Cl)cc32)CC1
logD: 4.1

For each entry beneath this line, provide reported logD.
1. COc1ccc(C(CN(C)C)C2(O)CCCCC2)cc1 (stereo not given)
2. CSc1ccc2c(c1)N(CCC1CCCCN1C)c1ccccc1S2 (stereo not given)
3. CN1CCN(C2=Nc3cc(Cl)ccc3Nc3ccccc32)CC1

Output:
1
4.4
3.48

* * *

Assignment: determine reported logD for the given compounds.
assay: Lipophilicity, log D at pH 7.4 by liquid chromatography
Assay type: physicochemical
details: buffer
Numbers only.

compound: CN1CCCCC1CCN1c2ccccc2Sc2ccc([S+](C)[O-])cc21 (stereo not given)
logD: 1.7

compound: Clc1ccc2c(c1)C(N1CCNCC1)=Nc1ccccc1O2
logD: 2.4

compound: Cc1nc2n(c(=O)c1CCN1CCC(c3noc4cc(F)ccc34)CC1)CCCC2
logD: 1.71

For each entry beneath this line, provide reported logD.
1. CCCN1C[C@H](CSC)C[C@@H]2c3cccc4[nH]cc(c34)C[C@H]21 [PERGOLIDE]
2. CN1CCN2c3ncccc3Cc3ccccc3C2C1 (stereo not given)

Output:
1. 3
2. 2.3

* * *

assay: Fraction unbound in rat brain
Type: ADME, tissue-based
assayMetric: fraction unbound

compound: CN(C)CCC=C1c2ccccc2COc2ccccc21 [DOXEPIN]
assayMetric: fraction unbound
dataValue: 0.025

For each entry beneath this line, provide reported fraction unbound.
1. CCCN1C[C@H](CSC)C[C@@H]2c3cccc4[nH]cc(c34)C[C@H]21 [PERGOLIDE]
2. Nc1c2c(nc3ccccc13)CCCC2
3. CNS(=O)(=O)Cc1ccc2[nH]cc(CCN(C)C)c2c1
4. OCCN1CCN(CCCN2c3ccccc3Sc3ccc(Cl)cc32)CC1
5. Cc1cc2c(s1)Nc1ccccc1N=C2N1CCN(C)CC1
6. CN1CCN2c3ncccc3Cc3ccccc3C2C1 (stereo not given)

Output:
[0.027, 0.124, 0.724, 0.004, 0.034, 0.08]

* * *

assay: Dissociation constant, pKa by capillary electrophoresis
Assay type: physicochemical
# cutoff 8 applies to pKa; >= gives yes, < gives no

Previously resolved entries follow.
compound: Cc1cc2c(s1)Nc1ccccc1N=C2N1CCN(C)CC1 [OLANZAPINE]
category: yes

compound: OCCOCCN1CCN(C2=Nc3ccccc3Sc3ccccc32)CC1 [QUETIAPINE]
category: no

compound: CNS(=O)(=O)Cc1ccc2[nH]cc(CCN(C)C)c2c1
category: yes

Input: pKa >= 8 for Clc1ccc2c(c1)C(N1CCNCC1)=Nc1ccccc1O2 [AMOXAPINE] ?
Output: yes

Input: pKa >= 8 for CN(C)CCC=C1c2ccccc2COc2ccccc21 [DOXEPIN] ?
Output: yes

* * *

assay: Lipophilicity, log D at pH 7.4 by liquid chromatography
Format: physicochemical
details: buffer
assayMetric: logD
One number for each entry.

molecule: CN(C)CCC=C1c2ccccc2COc2ccccc21 [DOXEPIN]
logD: 2.3

For each entry beneath this line, provide reported logD.
1. OCCOCCN1CCN(C(c2ccccc2)c2ccc(Cl)cc2)CC1 (stereo not given) [HYDROXYZINE]
2. CNCCC=C1c2ccccc2CCc2ccccc21 [NORTRIPTYLINE]
3. O=c1n(CCCN2CCN(c3cccc(Cl)c3)CC2)nc2ccccn12 [TRAZODONE]
4. Cc1ncc2n1-c1ccc(Cl)cc1C(c1ccccc1F)=NC2 [MIDAZOLAM]

Output:
1: 3.6; 2: 2.8; 3: 2.99; 4: 3.38

* * *

assay: Lipophilicity, log P by microemulsion electrokinetic chromatography
Type: physicochemical
details: read-out: logP
Assignment: determine reported logP for the given molecules.
Numbers only.

molecule: CN1CCN2c3ncccc3Cc3ccccc3C2C1 (stereo unspecified) [MIRTAZAPINE]
dataValue: 3.48
//
molecule: CN1CCOC(c2ccccc2)c2ccccc2C1 (stereo unspecified) [NEFOPAM]
dataValue: 3.2
//
molecule: Clc1ccc2c(c1)C(N1CCNCC1)=Nc1ccccc1O2 [AMOXAPINE]
dataValue: 3.71
//
molecule: CCOC(=O)c1ccc(N)cc1 [BENZOCAINE]
dataValue: 1.79
//
molecule: Cc1cc2c(s1)Nc1ccccc1N=C2N1CCN(C)CC1 [OLANZAPINE]
dataValue: 3.21

For each entry beneath this line, provide reported logP.
1. COc1ccc(C(CN(C)C)C2(O)CCCCC2)cc1 (stereo unspecified) [VENLAFAXINE]
2. O=C(CCCN1CCC(O)(c2ccc(Cl)cc2)CC1)c1ccc(F)cc1 [HALOPERIDOL]
3. NC12CC3CC(CC(C3)C1)C2 [AMANTADINE]
4. CN1CCC[C@H]1c1cccnc1 [NICOTINE]
5. COCCc1ccc(OCC(O)CNC(C)C)cc1 (stereo unspecified) [METOPROLOL]
6. c1ccc(-c2ccc(C(c3ccccc3)n3ccnc3)cc2)cc1 (stereo unspecified) [BIFONAZOLE]

Output:
[3.2, 3.53, 2.82, 1.22, 2.08, 5.56]

For each entry beneath this line, provide reported logP.
1. COc1ccc(Cc2nccc3cc(OC)c(OC)cc23)cc1OC [PAPAVERINE]
2. CN(C)CCC=C1c2ccccc2C=Cc2ccccc21 [CYCLOBENZAPRINE]
3. Cc1ccc(-c2nc3ccc(C)cn3c2CC(=O)N(C)C)cc1 [ZOLPIDEM]
4. CCN(CC)CCOC(=O)c1ccc(N)cc1 [PROCAINE]

Output:
2.73
4.81
2.2
2.18

For each entry beneath this line, provide reported logP.
1. Cc1nc2n(c(=O)c1CCN1CCC(c3noc4cc(F)ccc34)CC1)CCCC2 [RISPERIDONE]
2. CNCCCC12CCC(c3ccccc31)c1ccccc12 [MAPROTILINE]
3. CNCCC=C1c2ccccc2CCc2ccccc21 [NORTRIPTYLINE]
4. NC(=O)N1c2ccccc2C=Cc2ccccc21 [CARBAMAZEPINE]
5. C[C@]12C[C@H](O)[C@H]3[C@@H](CCC4=CC(=O)CC[C@@]43C)[C@@H]1CC[C@@H]2C(=O)CO [CORTICOSTERONE]
6. Nc1nnc(-c2cccc(Cl)c2Cl)c(N)n1 [LAMOTRIGINE]

Output:
1. 2.86
2. 4.67
3. 4.36
4. 2.29
5. 2.9
6. 1.6

* * *

assay: Dissociation constant, pKa by mass spectrometry
Format: physicochemical
# cutoff 4 applies to pKa; >= gives yes (1), < gives no (0)

Previously resolved entries follow.
molecule: OCCN1CCN(CCCN2c3ccccc3Sc3ccc(Cl)cc32)CC1
category: no (0)

molecule: Cc1cc2c(s1)Nc1ccccc1N=C2N1CCN(C)CC1
category: yes (1)

molecule: OCCOCCN1CCN(C2=Nc3ccccc3Sc3ccccc32)CC1
category: no (0)

molecule: Clc1ccc2c(c1)C(N1CCNCC1)=Nc1ccccc1O2
category: no (0)

Shift focus to the following entry.
Input: pKa >= 4 for CN1CCN2c3ncccc3Cc3ccccc3C2C1 (stereo not given) ?
Output: no (0)

* * *

Assignment: determine reported logP for the given compounds.
assay: Lipophilicity, log P of the compound
Type: physicochemical
details: octanol/water; read-out: logP

compound: COc1cc(NC(C)CCCN)c2ncccc2c1 (stereo not drawn)
logP: 3
//
compound: CN1CCOC(c2ccccc2)c2ccccc2C1 (stereo not drawn)
logP: 3.02

Attention now turns to another entry.
In plain terms, C=CCc1ccccc1OCC(O)CNC(C)C (stereo not drawn) has a documented logP of 2.99

* * *

assay: Fraction unbound in rat brain
Assay type: ADME, tissue-based
# cutoff 0.03 applies to fraction unbound; >= gives Met, < gives Not met

molecule: NC12CC3CC(CC(C3)C1)C2 [AMANTADINE]
category: Met

molecule: CCN(CC)CCNC(=O)c1cc(Cl)c(N)cc1OC [METOCLOPRAMIDE]
category: Met

molecule: Clc1ccc2c(c1)C(N1CCNCC1)=Nc1ccccc1O2 [AMOXAPINE]
category: Not met

molecule: OCCOCCN1CCN(C2=Nc3ccccc3Sc3ccccc32)CC1 [QUETIAPINE]
category: Not met

molecule: CN1CCN(C2=Nc3ccccc3Oc3ccc(Cl)cc32)CC1 [LOXAPINE]
category: Not met

molecule: CNCCCC12CCC(c3ccccc31)c1ccccc12 [MAPROTILINE]
category: Not met

molecule: CSc1ccc2c(c1)N(CCC1CCCCN1C)c1ccccc1S2 (stereo not drawn) [THIORIDAZINE]
category: Not met

Shift focus to the following entry.
Input: fraction unbound >= 0.03 for CN1CCCCC1CCN1c2ccccc2Sc2ccc([S+](C)[O-])cc21 (stereo not drawn) [MESORIDAZINE] ?
Output: Not met
